Value source: paper PMC6212790

Target: GST-Rok (full length) (Bacillus subtilis subsp. subtilis str. …, UniProt O34857 1-191)
Sequence: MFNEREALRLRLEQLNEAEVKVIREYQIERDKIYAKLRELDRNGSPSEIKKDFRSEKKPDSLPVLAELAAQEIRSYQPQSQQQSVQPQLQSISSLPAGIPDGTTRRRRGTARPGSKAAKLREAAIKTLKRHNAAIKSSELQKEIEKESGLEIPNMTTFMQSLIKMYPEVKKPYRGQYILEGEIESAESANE
Assay: protein binding microarray; Rok is a gene silencer of Bacillus subtilis; high values mean tight binding
Conditions: protein: recombinant; tags: GST (pTH5325, pDEST15-Magic modified); dsDNA, one strand shown
Whole data set: some 33,000 sequences, median “e-score” near -0.037, cut for the highest 2% near 0.34. The sample as a whole holds a higher share of the highest values than the screen did.
PROPERTY MEASURED: binding signal (E-score)
// return numeric value only (unit: E-score, not printed)

INSERT INTO measurements (chain, measured_value) VALUES
  ('ACAGAGGC', -0.125),
  ('TATAGATA', 0.384),
  ('AATAGATA', 0.262),
  ('GATAGATA', 0.368),
  ('AATGGGAG', -0.0919),
  ('AGAAACTC', 0.158);

Identify measured binding signal associated with AGAAACTA
0.412

Provide measured binding signal value, entry: GCTATATA
0.389

Provide only the value of recorded binding signal for AGAAACTG
0.12

Identify measured binding signal associated with CATAGATA
0.3

Specify reported binding signal for the sequence shown: GATAGACA
-0.0476
